# Tested on: greenhouse red spider mite (Tetranychus urticae)
# run.description: Tetranychus urticae test (OP-resistant/spray treatment)
# Assay type: in vivo
# assay.conditions: Tetranychus urticae, 144 h, read-out: Kill in % after 6 d
measurement.name: pest or weed control at 200 g/ha (%)
The answer is to be given in %; state only the numeric part.

CC(C)NC(=O)N1CC(=O)N(c2cc(Cl)cc(Cl)c2)C1=O | 50
CC(C)(C)C(O)C(Oc1ccc(Cl)cc1)n1cncn1 (stereo not drawn) | 0
N#Cc1ccccc1NC(=O)c1snc(Cl)c1Cl | 0
Cc1ccc(C(C)NC(=O)[C@@H](NC(=O)OC(C)C)C(C)C)cc1 (stereo partly drawn) | 0
CC(C)(C)C(O)(CCc1ccc(Cl)cc1)Cn1cncn1 (stereo not drawn) | 70

Exam item: Record request: pest or weed control at 200 g/ha value, item OC(Cc1ccccc1Cl)(Cn1ncnc1S)C1(Cl)CC1 (stereo not drawn)
Marked response: 0

Exam item: Record request: pest or weed control at 200 g/ha value, item N#Cc1c[nH]cc1-c1cccc2c1OC(F)(F)O2
Marked response: 0

Exam item: Record request: pest or weed control at 200 g/ha value, item O=C(NCCc1ncc(C(F)(F)F)cc1Cl)c1ccccc1C(F)(F)F
Marked response: 0

Exam item: Record request: pest or weed control at 200 g/ha value, item COCC(=O)N(c1c(C)cccc1C)C(C)C(=O)OC (stereo not drawn) [metalaxyl]
Marked response: 0
